Reference for the values: PubChem BioAssay

protocol-details: small-molecule binders of probe aInhba, primary screen, biochemical, small-molecule microarray, 635/667 nm fluorescence (AID 1148);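 note: score merges 667nm spot fluorescence with signal-to-noise for antibody binding to printed compounds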
test-conditions: higher = more signal
Would you mind telling me the reported composite z-score of each entry?
Give bare numbers.

Please review the entries below; each comes with its answer.
compound: CO[C@H]1O[C@H](CO)[C@@H](OC(=O)Nc2ccc(Br)cc2)[C@H](OC(=O)c2cc3ccccc3[nH]2)[C@H]1OC(=O)c1cc2ccccc2[nH]1
composite z-score: 0.0342
--
compound: COCCOC(=O)N1C(=O)[C@@]2(c3cc(C#Cc4ccc(OC)cc4)ccc31)[C@H](c1ccc(O)cc1)N1[C@H](c3ccccc3)[C@H](c3ccccc3)OC(=O)[C@H]1[C@@H]2C(=O)NC[C@H](O)c1ccccc1
composite z-score: -0.0259
--
compound: C=CCC(OC(C)=O)[C@@H]1[C@@H](N(Cc2ccc(-c3cccc(C(F)(F)F)c3)o2)C(=O)Cc2ccc(F)cc2)c2cc(OCCCO)ccc2N1C(=O)Cc1ccc(OC)cc1 (stereo partly specified)
composite z-score: -0.183
--
compound: [N-]=[N+]=Nc1ccccc1C[C@@]1(C(=O)NCCN2CCOCC2)N=C(c2ccc(OCCCO)cc2)O[C@@H]1c1ccccc1
composite z-score: 0.258
--
compound: C=C(/C(=C/C[C@@H](OC(C)=O)c1ccc(OCCO)cc1)c1cnc2ccccc2c1)C(C)C
composite z-score: -0.084

Q: Could you share which composite z-score value was measured for COC(=O)[C@@]1(Cc2ccccc2)[C@H]2c3cc(C(=O)N4CCCC4)n(Cc4nc5ccccc5[nH]4)c3C[C@H]2CN1C(=O)c1ccccc1 ?
A: 0.427

====

protocol-details: PSAC antagonists in infected red cells, primary screen, cell-based, P. falciparum Indochina, OD700, 18 h (AID 1157)
test-conditions: P. falciparum Indochina infected erythrocytes, osmotic lysis OD700, 18 h; higher = more signal, called active from +8 up or from −8 down
Label scheme, based on z-score: class A = under -0.4, class B = from -0.4 up to 1, class C = 1 and over

compound: CC(C)C[C@@H]1NC(=O)[C@@H]2C[C@H](C(=O)NCCCCCN)[C@H](c3cccc(OCCO)c3)N2C1=O
group-label: class A

Q: Textbook exercise: identify the category of the compound given here, [N-]=[N+]=Nc1ccccc1[C@H]1OC(c2ccc(OCCCO)cc2)=N[C@@]1(Cc1ccccc1)C(=O)O , according to its measured value.
A: class C

Q: Textbook exercise: identify the category of the compound given here, COc1cc2c(cc1O)C=[N+](Cc1cccc(OC(F)(F)F)c1)CC2 , according to its measured value.
A: class A

Q: Textbook exercise: identify the category of the compound given here, C=CC[C@@]1(C(N)=O)N=C(c2ccc(OCCCO)cc2)O[C@@H]1c1ccccc1CN=[N+]=[N-] , according to its measured value.
A: class A

Q: Textbook exercise: identify the category of the compound given here, C=CCN1C(=O)[C@]2(O[C@H](CCO)[C@@H]([Si](C)(C)c3ccc(OC)cc3)[C@@H]2C)c2cc(N3CCCCC3=O)ccc21 , according to its measured value.
A: class C

Q: Textbook exercise: identify the category of the compound given here, CCOC(=O)C[C@H]1[C@H](OC(=O)Cc2ccc3c(c2)OCO3)[C@@H](NC(=O)c2ccc3ccccc3c2)c2cc(OCCCO)ccc2N1C(=O)c1ccccc1 , according to its measured value.
A: class B

Q: Textbook exercise: identify the category of the compound given here, O=C1NC(=O)C2C1C=CC(C(O)c1ccccc1)N2Nc1ccc(Cl)cc1Cl (centres undefined) , according to its measured value.
A: class A
